Data credit: the RNAGym collection of RNA variant scans (doi:10.1126/science.aae0568)

B1: tRNA (parent)
chain: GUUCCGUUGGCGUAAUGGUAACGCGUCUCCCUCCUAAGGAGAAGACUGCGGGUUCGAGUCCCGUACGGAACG

variants of: B1; test: yeast fitness relative to wild type (ratio to wild type); higher = fitter; tRNA-Arg(CCU), competitive growth, 37 C, YPD
Variants at the floor of the assay were thinned out.
measure.name: yeast fitness
# answer = number (no unit)

# variant.code, yeast fitness
data = [
    ("C5A C62U", 0.954),
    ("G10C U32C A42C A65C C66G", 0.614),
    ("A14U C62G", 0.692),
    ("C4A G18C", 0.58),
    ("A21C C24A C33A G48C", 0.579),
    ("G58C C66U", 0.982),
]

Query :: Consider the variant G6C G56A G67A . State its measured yeast fitness.
Result :: 0.588

Query :: Consider the variant A15G U32A A43U . State its measured yeast fitness.
Result :: 0.603

Query :: Consider the variant U13C A70C . State its measured yeast fitness.
Result :: 1.09

Query :: Consider the variant U2C C24A U26A U47C C61U . State its measured yeast fitness.
Result :: 0.628
